target system: human GR (Homo sapiens, UniProt P04150)
Construct: naturally expresses the human GR; endogenous in cells
Sequence (P04150 whole entry): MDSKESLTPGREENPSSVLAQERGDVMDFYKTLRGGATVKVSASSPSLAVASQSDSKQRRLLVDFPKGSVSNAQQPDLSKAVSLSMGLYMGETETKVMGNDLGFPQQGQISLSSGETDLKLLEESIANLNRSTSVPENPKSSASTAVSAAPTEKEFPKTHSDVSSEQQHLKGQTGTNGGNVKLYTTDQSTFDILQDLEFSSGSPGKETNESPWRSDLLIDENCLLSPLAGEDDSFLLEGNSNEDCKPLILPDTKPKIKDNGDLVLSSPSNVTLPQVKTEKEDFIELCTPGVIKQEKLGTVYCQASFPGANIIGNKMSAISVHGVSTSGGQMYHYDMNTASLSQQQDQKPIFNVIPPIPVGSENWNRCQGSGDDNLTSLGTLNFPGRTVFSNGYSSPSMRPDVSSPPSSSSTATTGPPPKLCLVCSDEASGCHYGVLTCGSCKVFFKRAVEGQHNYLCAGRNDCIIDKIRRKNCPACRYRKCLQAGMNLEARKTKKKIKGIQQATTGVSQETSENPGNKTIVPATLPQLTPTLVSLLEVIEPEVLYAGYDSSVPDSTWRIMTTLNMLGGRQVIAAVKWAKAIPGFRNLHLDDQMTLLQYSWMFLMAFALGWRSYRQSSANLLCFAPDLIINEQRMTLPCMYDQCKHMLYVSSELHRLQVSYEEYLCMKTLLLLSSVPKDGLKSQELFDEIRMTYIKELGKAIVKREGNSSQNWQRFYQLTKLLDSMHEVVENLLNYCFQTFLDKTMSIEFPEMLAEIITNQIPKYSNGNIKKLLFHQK
protocol details: Trans-activation modulation of glucocorticoid receptor (GRAMMER), MMTV-LUC reporter in A549 cells
Format: cell-based
experimental context: A549 cells; IP = inflection point; read-out: Transactivation A549 Cells Grammer IP
Items are presented alongside their recorded pEC50.
Friendly reminder that pEC50 comes from taking -log10 of the concentration in mol/L.

For the molecule CS(=O)(=O)c1ccccc1CC[C@]1(O)CCC2=Cc3c(cnn3-c3ccc(F)cc3)C[C@@]21C1CC1 [Example 58] , give its measured pEC50 value. 8.05

For the molecule O=C(NC1(CO)CC1)c1ccccc1CC[C@]1(O)CCC2=Cc3c(cnn3-c3ccc(F)cc3)C[C@@]21C1CC1 [Example 46] , give its measured pEC50 value. 7.70

For the molecule CC[C@]12Cc3cnn(-c4ccc(F)cc4)c3C=C1CC[C@@]2(O)CCc1ccccc1CCC(N)=O [Example 22] , give its measured pEC50 value. 6.91

For the molecule CC[C@]12Cc3cnn(-c4ccccc4)c3C=C1CC[C@@]2(O)CC(O)c1ccccn1 (single isomer, unassigned) [Example 82b] , give its measured pEC50 value. 6.76
